IC50 values, listed per item
- measured_target: Acetylcholinesterase (Bos taurus, UniProt P23795)
Give the value, in units of nM, as a plain number.

item_smiles	meas_value
Oc1c(CNCCCCCCCCCCCCNc2c3c(nc4ccccc24)CCCC3)cc(Cl)c2cccnc12	400
Cc1ccc2ccc(CNCCCCCCCCCNc3c4c(nc5ccccc35)CCCC4)c(O)c2n1	100
Oc1c(CNCCCCCCCCCCCCNc2c3c(nc4ccccc24)CCCC3)ccc2cccnc12	250

Prompt line: Lab note: need IC50 with Acetylcholinesterase (Bos taurus, UniProt P23795) for entry Cc1ccc2ccc(CNCCCCCCCCNc3c4c(nc5ccccc35)CCCC4)c(O)c2n1.Cl.Cl , please look it up.
Response line: 75

Prompt line: Lab note: need IC50 with Acetylcholinesterase (Bos taurus, UniProt P23795) for entry Cc1ccc2ccc(CNCCCCCCCNc3c4c(nc5ccccc35)CCCC4)c(O)c2n1 , please look it up.
Response line: 200

----------
- measured_target: Acetylcholinesterase (Homo sapiens, UniProt P22303)
- Sequence (P22303 whole entry): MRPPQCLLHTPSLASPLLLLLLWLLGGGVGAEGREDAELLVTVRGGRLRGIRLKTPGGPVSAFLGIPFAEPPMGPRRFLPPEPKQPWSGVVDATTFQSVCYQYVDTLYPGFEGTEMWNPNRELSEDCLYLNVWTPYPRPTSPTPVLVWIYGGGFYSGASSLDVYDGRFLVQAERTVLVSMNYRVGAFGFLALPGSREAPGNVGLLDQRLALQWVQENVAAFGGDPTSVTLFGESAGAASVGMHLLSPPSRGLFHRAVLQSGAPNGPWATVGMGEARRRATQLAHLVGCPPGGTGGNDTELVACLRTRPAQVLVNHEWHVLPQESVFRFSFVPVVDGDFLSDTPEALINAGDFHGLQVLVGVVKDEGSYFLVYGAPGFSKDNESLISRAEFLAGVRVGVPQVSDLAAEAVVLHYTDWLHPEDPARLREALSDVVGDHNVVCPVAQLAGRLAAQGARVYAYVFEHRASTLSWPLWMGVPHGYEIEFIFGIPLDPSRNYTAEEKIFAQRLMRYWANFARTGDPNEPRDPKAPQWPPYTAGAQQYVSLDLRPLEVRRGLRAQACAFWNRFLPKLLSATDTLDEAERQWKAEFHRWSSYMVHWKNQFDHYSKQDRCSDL
measured_attribute: IC50

Solved cases (3 shown):
item_smiles	meas_value
Cl.Cl.Oc1c(CNCCCCCCCCCNc2c3c(nc4ccccc24)CCCC3)ccc2cccnc12	5.5 nM
Cl.Cl.Cl.Oc1c(CNCCCCCCCCCNc2c3c(nc4ccccc24)CCCC3)cc(Cl)c2cccnc12	1 nM
Cc1ccc2ccc(CNCCCCCCCCNc3c4c(nc5ccccc35)CCCC4)c(O)c2n1.Cl.Cl	0.5 nM

Prompt line: Lab note: need IC50 with Acetylcholinesterase (Homo sapiens, UniProt P22303) for entry Oc1cccc2cccnc12 , please look it up.
Response line: > 100 nM

----------
- measured_target: Acetylcholinesterase (Bos taurus)
- Sequence (P23795 whole entry): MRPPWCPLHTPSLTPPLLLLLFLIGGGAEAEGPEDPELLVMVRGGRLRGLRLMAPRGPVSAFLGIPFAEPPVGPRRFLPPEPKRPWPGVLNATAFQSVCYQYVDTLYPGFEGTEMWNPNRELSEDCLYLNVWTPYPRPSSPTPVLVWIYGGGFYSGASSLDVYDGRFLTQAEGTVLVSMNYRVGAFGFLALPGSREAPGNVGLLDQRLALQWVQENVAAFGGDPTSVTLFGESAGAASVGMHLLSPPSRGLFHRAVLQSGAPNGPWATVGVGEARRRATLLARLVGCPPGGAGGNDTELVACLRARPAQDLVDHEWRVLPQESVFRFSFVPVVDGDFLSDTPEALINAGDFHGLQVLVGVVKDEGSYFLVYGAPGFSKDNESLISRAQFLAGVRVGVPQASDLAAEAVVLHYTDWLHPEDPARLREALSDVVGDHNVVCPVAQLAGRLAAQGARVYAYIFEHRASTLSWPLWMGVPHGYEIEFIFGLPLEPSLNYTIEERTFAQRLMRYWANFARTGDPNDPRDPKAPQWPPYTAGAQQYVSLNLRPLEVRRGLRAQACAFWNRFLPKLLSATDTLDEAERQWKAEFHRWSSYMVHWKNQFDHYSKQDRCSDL
Mark fulfilled for IC50 under 0.09 µM, not fulfilled if at or over.

item_smiles	assigned_label
Oc1c(CNCCCCCCCNc2c3c(nc4ccccc24)CCCC3)ccc2cccnc12	fulfilled
Cc1ccc2ccc(CNCCCN(C)CCCNc3c4c(nc5ccccc35)CCCC4)c(O)c2n1	not fulfilled
Cl.Cl.Cl.Oc1c(CNCCCCCCCCCNc2c3c(nc4ccccc24)CCCC3)cc(Cl)c2cccnc12	fulfilled
Cc1ccc2ccc(CNCCCCCCCCCCNc3c4c(nc5ccccc35)CCCC4)c(O)c2n1	fulfilled
CN(CCCNCc1ccc2cccnc2c1O)CCCNc1c2c(nc3ccccc13)CCCC2	fulfilled

Prompt line: Hello, I'm reviewing records and need to know if IC50 of Oc1c(CNCCCCCCNc2c3c(nc4ccccc24)CCCC3)ccc2cccnc12 is below 0.09 µM. Could you check?
Response line: not fulfilled

Prompt line: Hello, I'm reviewing records and need to know if IC50 of Oc1c(CNCCCCCCCCCCNc2c3c(nc4ccccc24)CCCC3)ccc2cccnc12 is below 0.09 µM. Could you check?
Response line: fulfilled

Prompt line: Hello, I'm reviewing records and need to know if IC50 of Oc1c(CNCCCCCCCCNc2c3c(nc4ccccc24)CCCC3)cc(Cl)c2cccnc12 is below 0.09 µM. Could you check?
Response line: not fulfilled

----------
- test_protocol: Permeability by PAMPA method
- Assay type: ADME
- condition_set: read-out: permeability
measured_attribute: Papp (×10⁻⁶ cm/s)
Give the value, in units of ×10⁻⁶ cm/s, as a plain number.

item_smiles	Papp (×10⁻⁶ cm/s)
Cl.Cl.Cl.Oc1c(CNCCCCCCCCCNc2c3c(nc4ccccc24)CCCC3)cc(Cl)c2cccnc12	10
Cc1ccc2ccc(CNCCCCCCCCNc3c4c(nc5ccccc35)CCCC4)c(O)c2n1.Cl.Cl	14.1

Shift focus to the following entry.
Prompt line: Any idea what its Papp is? The compound is Cl.Cl.Oc1c(CNCCCCCCCCCNc2c3c(nc4ccccc24)CCCC3)ccc2cccnc12
Response line: 17.4

----------
- measured_target: Acetylcholinesterase (Bos taurus, UniProt P23795)
- Sequence (P23795 whole entry): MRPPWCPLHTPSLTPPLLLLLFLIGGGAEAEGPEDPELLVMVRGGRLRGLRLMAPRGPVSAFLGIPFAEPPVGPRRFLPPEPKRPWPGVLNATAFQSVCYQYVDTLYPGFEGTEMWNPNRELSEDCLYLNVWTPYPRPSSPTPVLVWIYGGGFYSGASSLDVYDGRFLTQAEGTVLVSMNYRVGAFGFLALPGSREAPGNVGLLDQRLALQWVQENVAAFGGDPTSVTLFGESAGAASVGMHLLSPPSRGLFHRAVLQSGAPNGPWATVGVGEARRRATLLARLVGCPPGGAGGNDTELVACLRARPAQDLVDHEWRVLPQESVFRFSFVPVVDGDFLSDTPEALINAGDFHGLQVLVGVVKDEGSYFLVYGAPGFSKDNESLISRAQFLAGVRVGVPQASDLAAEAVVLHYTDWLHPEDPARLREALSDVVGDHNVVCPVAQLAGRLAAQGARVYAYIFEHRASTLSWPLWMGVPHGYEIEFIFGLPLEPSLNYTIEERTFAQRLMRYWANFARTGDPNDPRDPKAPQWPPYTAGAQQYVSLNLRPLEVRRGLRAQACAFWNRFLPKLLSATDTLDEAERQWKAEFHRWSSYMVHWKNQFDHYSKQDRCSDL
IC50 values, listed per item
Give the value, in units of µM, as a plain number.

item_smiles	units_symbol	IC50
Oc1c(CNCCCCCCCCNc2c3c(nc4ccccc24)CCCC3)ccc2cccnc12	µM	0.09

Prompt line: Any idea what its IC50 is? The compound is Oc1c(CNCCCCCCCCCCNc2c3c(nc4ccccc24)CCCC3)cc(Cl)c2cccnc12
Response line: 0.1

Prompt line: Any idea what its IC50 is? The compound is Cl.Cl.Oc1c(CNCCCCCCCCCNc2c3c(nc4ccccc24)CCCC3)ccc2cccnc12
Response line: 0.02

----------
- measured_target: Cholinesterase (Equus caballus, UniProt P81908)
- Sequence (P81908 whole entry): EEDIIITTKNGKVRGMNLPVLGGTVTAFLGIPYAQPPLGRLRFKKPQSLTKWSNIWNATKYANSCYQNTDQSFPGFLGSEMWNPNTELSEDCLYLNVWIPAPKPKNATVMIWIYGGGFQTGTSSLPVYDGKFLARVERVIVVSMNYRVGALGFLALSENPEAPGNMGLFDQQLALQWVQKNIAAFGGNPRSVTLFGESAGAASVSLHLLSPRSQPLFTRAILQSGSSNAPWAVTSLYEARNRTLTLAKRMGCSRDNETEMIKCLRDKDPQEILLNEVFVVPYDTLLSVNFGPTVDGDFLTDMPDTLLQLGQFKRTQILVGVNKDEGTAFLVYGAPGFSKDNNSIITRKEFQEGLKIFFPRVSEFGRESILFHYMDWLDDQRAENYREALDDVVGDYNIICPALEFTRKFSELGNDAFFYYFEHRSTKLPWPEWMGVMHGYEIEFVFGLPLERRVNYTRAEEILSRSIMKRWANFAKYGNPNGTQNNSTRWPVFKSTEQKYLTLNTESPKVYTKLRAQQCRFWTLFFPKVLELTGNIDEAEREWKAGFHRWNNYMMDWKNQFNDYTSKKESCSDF
pIC50: −log10 of the molar value.
Use 8 as the dividing line for pIC50, with the line itself on the class 1 side and lower values as class 0.

Prompt line: Evaluate Oc1c(CNCCCCCCCNc2c3c(nc4ccccc24)CCCC3)ccc2cccnc12 : pIC50 at minimum 8?
Response line: class 0

Prompt line: Evaluate Oc1c(CNCCCCCCCCCCNc2c3c(nc4ccccc24)CCCC3)ccc2cccnc12 : pIC50 at minimum 8?
Response line: class 0

Prompt line: Evaluate CN(CCCNCc1cc(Cl)c2cccnc2c1O)CCCNc1c2c(nc3ccccc13)CCCC2 : pIC50 at minimum 8?
Response line: class 0

Prompt line: Evaluate Oc1c(CNCCCCCCCCNc2c3c(nc4ccccc24)CCCC3)ccc2cccnc12 : pIC50 at minimum 8?
Response line: class 0

Prompt line: Evaluate Cl.Cl.Oc1c(CNCCCCCCCCCNc2c3c(nc4ccccc24)CCCC3)ccc2cccnc12 : pIC50 at minimum 8?
Response line: class 1

Prompt line: Evaluate CN(CCCNCc1ccc2cccnc2c1O)CCCNc1c2c(nc3ccccc13)CCCC2 : pIC50 at minimum 8?
Response line: class 0

Prompt line: Evaluate Cc1ccc2ccc(CNCCCCCCCCNc3c4c(nc5ccccc35)CCCC4)c(O)c2n1.Cl.Cl : pIC50 at minimum 8?
Response line: class 1
